Tested on: P-glycoprotein (Pgp)
assay.method.text: Pgp-induction assay, rhodamine123 (Rh123) cell exclusion method in LS180 cells
Assay type: cell-based
details: LS-180 cells, 48 h treatment, Rh123 fluorescence; read-out: Pgp induction EC50
pEC50: −log10 of the molar value.
result.type: pEC50

P: C=C(C)[C@@H](CC=C(C)C)C[C@@]12C[C@@H](CC=C(C)C)C(C)(C)[C@@](CC=C(C)C)(C(=O)C(C(=O)c3ccc(O)c(O)c3)=C1O)C2=O [Compound 1a, Garcinol, reference compound]
Q: CC(C)=CC[C@H]1C[C@@]23C[C@@H](CC=C(C)C)C(C)(C)[C@@](CC=C(C)C)(C(=O)C(C(=O)c4ccc(O)c(O)c4)=C2OC1(C)C)C3=O [Compound 2a, Isogarcinol, reference compound]
query: Hello, I am sorting some records. Could you say if P or Q has the smaller pEC50 value? Return value: the label identifying the chosen record.
result: P
(P: 7.92, Q: 8.15)
